- Test system: Staphylococcus aureus
- PROCEDURE SUMMARY: In vitro minimum inhibitory concentration required to produce antibacterial activity against Staphylococcus aureus 743 MRSA
- Assay type: functional
# reported MIC; entries follow
METRIC NAME: MIC (µg/mL)

[[record]]
compound = "Nc1nc(/C(=N/O)C(=O)N[C@@H]2C(=O)N3C(C(=O)O)=C(/C=C4\\CCNC4=O)CS[C@H]23)cs1"
experimental_target = "Staphylococcus aureus"
scale_unit = "µg/mL"
relation_operator = "="
quantitative_result = 8

[[record]]
compound = "C#CCN1CC/C(=C\\C2=C(C(=O)O)N3C(=O)[C@@H](NC(=O)/C(=N\\O)c4csc(N)n4)[C@H]3SC2)C1=O"
experimental_target = "Staphylococcus aureus"
scale_unit = "µg/mL"
relation_operator = "="
quantitative_result = 4

[[record]]
compound = "Nc1nc(/C(=N/OC2CCCC2)C(=O)N[C@@H]2C(=O)N3C(C(=O)O)=C(/C=C4\\CCN(CC(F)(F)F)C4=O)CS[C@H]23)cs1"
experimental_target = "Staphylococcus aureus"
scale_unit = "µg/mL"
relation_operator = "="
quantitative_result = 8

[[record]]
compound = "Nc1nc(/C(=N/O)C(=O)N[C@@H]2C(=O)N3C(C(=O)O)=C(/C=C4\\CCN(c5ccc(O)c(O)c5)C4=O)CS[C@H]23)cs1"
experimental_target = "Staphylococcus aureus"
scale_unit = "µg/mL"
relation_operator = "="
quantitative_result = 16

[[record]]
compound = "Nc1nc(/C(=N/O)C(=O)N[C@@H]2C(=O)N3C(C(=O)O)=C(/C=C4\\CCN(c5ccc(O)cc5)C4=O)CS[C@H]23)cs1"
experimental_target = "Staphylococcus aureus"
scale_unit = "µg/mL"
relation_operator = "="
quantitative_result = 4

[[record]]
compound = "CC(C)(O/N=C(\\C(=O)N[C@@H]1C(=O)N2C(C(=O)[O-])=C(C[n+]3ccccc3)CS[C@H]12)c1csc(N)n1)C(=O)O [CEFTAZIDIME]"
experimental_target = "Staphylococcus aureus"
scale_unit = "µg/mL"
relation_operator = ">"
quantitative_result = 32

[[record]]
compound = "Nc1nc(/C(=N/O)C(=O)N[C@@H]2C(=O)N3C(C(=O)O)=C(/C=C4\\CCN(CC(=O)O)C4=O)CS[C@H]23)cs1"
experimental_target = "Staphylococcus aureus"
scale_unit = "µg/mL"
relation_operator = ">"
quantitative_result = 32


Recorded values, source ChEMBL document CHEMBL1129566.
